// data source = patent US10071100B2

Assay: physchem
Assay type: physicochemical
Conditions: pH 7.4
recorded.endpoint: logD
When you answer, write just the number.

Please fill in: logD reported for CN(C)C1CCN(C(=O)c2ccc(NC(=O)Nc3ccc(-c4nc(N5CCOCC5)nc(N5CCOCC5)n4)cc3)cc2)CC1 [therapeutic agent] = 1.08
